Ref: patent US20080051336A1

targetOrTestSystem: T1, human LGR7 (human, UniProt Q9HBX9 1-757)
T1 sequence (looked up): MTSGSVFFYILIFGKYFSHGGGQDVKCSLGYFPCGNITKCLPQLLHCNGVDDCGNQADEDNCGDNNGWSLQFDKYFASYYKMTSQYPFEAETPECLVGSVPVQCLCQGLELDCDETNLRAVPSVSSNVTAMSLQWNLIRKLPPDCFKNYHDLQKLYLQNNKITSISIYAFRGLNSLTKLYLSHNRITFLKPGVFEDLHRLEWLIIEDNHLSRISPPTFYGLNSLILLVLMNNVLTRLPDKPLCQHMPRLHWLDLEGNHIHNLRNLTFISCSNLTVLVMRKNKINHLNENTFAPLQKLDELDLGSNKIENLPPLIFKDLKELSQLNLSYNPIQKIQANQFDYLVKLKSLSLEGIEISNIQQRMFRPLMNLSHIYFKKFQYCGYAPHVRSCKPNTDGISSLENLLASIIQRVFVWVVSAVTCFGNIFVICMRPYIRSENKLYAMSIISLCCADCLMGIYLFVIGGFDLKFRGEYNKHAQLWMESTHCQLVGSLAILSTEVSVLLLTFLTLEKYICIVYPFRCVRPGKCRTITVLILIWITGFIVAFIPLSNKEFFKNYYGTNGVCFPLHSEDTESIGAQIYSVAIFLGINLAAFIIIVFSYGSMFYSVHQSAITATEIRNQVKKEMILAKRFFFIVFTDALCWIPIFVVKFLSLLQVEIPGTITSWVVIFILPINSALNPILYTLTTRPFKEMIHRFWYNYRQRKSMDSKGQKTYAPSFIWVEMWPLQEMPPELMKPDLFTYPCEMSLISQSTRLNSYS
methodNotes: cell-based or functional assay
Ends that are not written are not given here.
propertyLabel: EC50, ligand stimulated β-galactosidase expression

Solved cases (3 shown):
binder: RAAPYGVRLCGREFIRAVIFTCGGSRWGYSEKCCLTGCTKEELSIAC (ligand, disulfide (positions not given here); also: two chains (relaxin-3 B-chain, INSL6 A-chain), disulfide-linked, chain break not marked, Mature two-chain peptide: human relaxin-3 B-chain disulfide-linked to human INSL6 A-chain; FLAG tag removed) [human relaxin-3/INSL6 chimeric polypeptide (R3/I6), mature]
valueObserved: 10 nM
//
binder: RAAPYGVRLCGREFIRAVIFTCGGSRWQDLQTLCCTDGCSMTDLSALC (ligand, disulfide (positions not given here); also: two chains (relaxin-3 B-chain, INSL5 A-chain), disulfide-linked, chain break not marked, Mature two-chain peptide: human relaxin-3 B-chain disulfide-linked to human INSL5 A-chain; FLAG tag removed; the tracer is kept under this same molecule; also called R3/5; I5/R3) [human relaxin-3/INSL5 chimeric polypeptide (R3/I5), mature]
valueObserved: ~400 nM
//
binder: human relaxin-3/relaxin-2 chimeric polypeptide (R3/R2), mature (ligand, disulfide (positions not given here); also: two-chain peptide (relaxin-3 B chain, relaxin-2 A chain), disulfide-linked, places not given here, Mature two-chain peptide: human relaxin-3 B-chain disulfide-linked to human relaxin-2 A-chain; FLAG tag removed) RAAPYGVRLCGREFIRAVIFTCGGSRWQLYSALANKCCHVGCTKRSLARFC
valueObserved: 1 to 5 nM

Now turn to the next binder.
Annotate the binder RAAPYGVRLCGREFIRAVIFTCGGSRWPYVALFEKCCLIGCTKRSLAKYC (ligand, disulfide (positions not given here); also: two chains (relaxin-3 B-chain, relaxin-1 A-chain), disulfide-linked, chain break not marked, Mature two-chain peptide: human relaxin-3 B-chain disulfide-linked to human relaxin-1 A-chain; Made in COS-7 cells with furin; the FLAG tag was removed with enterokinase) [human relaxin-3/relaxin-1 chimeric polypeptide (R3/R1), mature] with its measured EC50, ligand stimulated β-galactosidase expression.
1 to 5 nM
